// provenance: patent US11492347B2

Tested on: H1N1 (influenza A/New Caledonia/20/99)
protocol description: microbe, parasite or virus in culture
Type: cell-based
experimental conditions: H1N1, A549, 48 h
# label = bin(measured IC50), where bins are bucket A: < 30 nM; bucket B: ≥ 30 nM and < 500 nM; bucket C: ≥ 500 nM

[[record]]
compound = "Cn1cc(C(=O)Nc2sc3c(c2C(=O)O)CC(C)(C)CC3(C)C)cn1"
class_name = "bucket B"

[[record]]
compound = "CC1(C)CCc2sc(NC(=O)c3cccc(N4CCOCC4)n3)c(C(=O)O)c2C1"
class_name = "bucket C"

[[record]]
compound = "CC1(C)Cc2c(sc(NC(=O)c3ccc(NC4COC4)cc3)c2C(=O)O)C(C)(C)C1"
class_name = "bucket A"

[[record]]
compound = "COc1ccc(C(=O)Nc2sc3c(c2C(=O)O)CCC(C)(C)C3)c(F)c1"
class_name = "bucket B"

[[record]]
compound = "CC1(C)CCc2sc(NC(=O)c3ccnc(N4CCOCC4)c3)c(C(=O)O)c2C1"
class_name = "bucket B"

[[record]]
compound = "CC1(C)Cc2c(sc(NC(=O)c3ccncn3)c2C(=O)O)C(C)(C)C1"
class_name = "bucket C"

[[record]]
compound = "CC1(C)CCc2sc(NC(=O)c3ccccc3)c(C(=O)O)c21"
class_name = "bucket B"

[[record]]
compound = "COCCNc1ccc(C(=O)Nc2sc3c(c2C(=O)O)C(C)CC(C)(C)C3)cc1 (centres unmarked)"
class_name = "bucket B"


Could you tell me which band CC1(C)Cc2c(sc(NC(=O)c3ccc(NC4CCOCC4)cc3)c2C(=O)O)C(C)(C)C1 belongs to?
bucket A

Could you tell me which band CCOC1CN(c2ccc(C(=O)Nc3sc4c(c3C(=O)O)CC(C)(C)CC4(C)C)cc2)C1 belongs to?
bucket A

Could you tell me which band CC1(C)CCc2sc(NC(=O)c3ccn(CC4CCOCC4)n3)c(C(=O)O)c2C1 belongs to?
bucket C
